Numbers sourced from patent US20160122421A1.

What kon was measured for each of the following?
Biological target: T1, 383 amino acid recombinant tau (UniProt P10636-6 1-383, biotinylated where printed as biotin-rTau383 (position not given))
T1 construct: also called rTau383
T1 sequence (P10636 other isoform, or with tags, fused parts or gaps limits assumed): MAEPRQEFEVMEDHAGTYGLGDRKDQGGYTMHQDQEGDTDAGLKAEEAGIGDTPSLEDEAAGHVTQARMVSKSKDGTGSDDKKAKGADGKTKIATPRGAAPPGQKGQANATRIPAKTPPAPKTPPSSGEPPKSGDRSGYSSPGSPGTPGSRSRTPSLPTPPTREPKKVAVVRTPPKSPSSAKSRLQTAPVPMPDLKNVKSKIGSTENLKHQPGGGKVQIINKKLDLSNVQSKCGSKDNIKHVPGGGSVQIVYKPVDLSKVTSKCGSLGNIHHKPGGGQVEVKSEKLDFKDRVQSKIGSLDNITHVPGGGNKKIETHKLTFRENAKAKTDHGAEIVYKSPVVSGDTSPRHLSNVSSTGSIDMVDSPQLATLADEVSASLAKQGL
Assay: Octet
Number only, in M⁻¹ s⁻¹; omit the unit.

Asked: What does the record list as kon for humanized IPN002 variant VH2/Vk3 (antibody, V domains shown) VH: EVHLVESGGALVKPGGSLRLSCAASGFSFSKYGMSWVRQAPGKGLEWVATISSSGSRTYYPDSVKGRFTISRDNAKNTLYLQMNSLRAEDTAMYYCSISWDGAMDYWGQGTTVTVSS VL: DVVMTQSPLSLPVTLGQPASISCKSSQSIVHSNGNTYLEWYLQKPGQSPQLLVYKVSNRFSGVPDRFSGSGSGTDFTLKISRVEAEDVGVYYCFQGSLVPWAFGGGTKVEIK ?
Given back: 134000

Asked: Requested field: kon. Item: VH4/Vk2 (antibody, V domains shown, member of the group m7; also called humanized IPN002 variant VH4/Vk2) VH: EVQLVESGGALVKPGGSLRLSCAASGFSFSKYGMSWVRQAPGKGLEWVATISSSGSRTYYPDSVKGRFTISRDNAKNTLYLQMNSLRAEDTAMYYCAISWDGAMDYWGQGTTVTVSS VL: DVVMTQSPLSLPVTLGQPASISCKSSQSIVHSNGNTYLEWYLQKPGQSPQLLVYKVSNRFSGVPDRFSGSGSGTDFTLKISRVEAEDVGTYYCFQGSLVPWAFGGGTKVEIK
Given back: 163000

Asked: Query: kon; subject: VH4/Vk1 (antibody, V domains shown, member of the group m7; also called humanized IPN002 variant VH4/Vk1) VH: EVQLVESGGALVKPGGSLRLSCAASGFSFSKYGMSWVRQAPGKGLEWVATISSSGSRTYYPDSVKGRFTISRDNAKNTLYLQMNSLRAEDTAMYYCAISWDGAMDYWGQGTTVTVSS VL: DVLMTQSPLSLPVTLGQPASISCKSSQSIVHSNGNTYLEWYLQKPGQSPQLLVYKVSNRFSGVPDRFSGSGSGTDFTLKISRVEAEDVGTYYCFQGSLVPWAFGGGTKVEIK
Given back: 140000

Asked: Value lookup for kon; key = VH4/Vk4 (antibody, V domains shown, member of the group m7; also called humanized IPN002 variant VH4/Vk4) VH: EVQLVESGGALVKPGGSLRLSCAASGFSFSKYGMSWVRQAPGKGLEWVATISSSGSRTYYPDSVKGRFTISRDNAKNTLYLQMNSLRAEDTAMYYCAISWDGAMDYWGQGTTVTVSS VL: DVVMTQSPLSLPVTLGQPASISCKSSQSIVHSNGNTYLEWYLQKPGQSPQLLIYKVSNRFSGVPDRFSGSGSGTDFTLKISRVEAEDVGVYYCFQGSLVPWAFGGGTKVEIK
Given back: 156000
